experiment_summary: soluble fraction after stress (log2 fold change); higher = more stays soluble; pooled small domains, quantitative proteomics;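 further: 20 min heating vs room temperature control held 20 min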
measurement_conditions: stress: 75 degC
recorded_endpoint: soluble fraction (log2)

                            residue_sequence  result_operator  experimental_value
 0  HMGPAVGAIRVEGNKRVEPETVRTYLTFNVGDPYDLAKVDESLKALFATGLFQDVRIRREGNTVVIVVVEN                =              -0.701
 1  HMPSLSAILHDARVAAGLSMRQASAASGLSIGFISMLEQGKVQDISLQRLGRLVTAYDLEPLDVIEAAG                =               -1.83
 2  HMVKEVKVPDVEGLTTEEAIKELKKYGLAYTTKSEENTDIEEGKVIRTEPKKGSTKVKGSTVTIIESSG                =               0.451
 3  HMKTGNPYAQRNTADMYNYGRGIEKDSYLAFVWYFAAYKQGNDNAKPQIDSITASGHLSPNQQLHAKIE                =              -0.243
 4  HMSPKYLELVRWINTQIQEKKLTAGQKMYSENELKEMFGVSRQTVRHAISVLEGEGMIRRVRGSGTYINDN                =               -2.42
 5  HMNEPMITEVKRINYGSIKEIAKNLDVFKGKNGTVIIDERTNTLILTDLSENIEKMLWSIEITD                =              -0.927
 6  HMNVDALVGQRGRVTQTFDPGLRLGRVAVGGDDWRAETTTDQPLREGDLVEVVSVESNTLIVRPIA                =              0.0567
 7  HMRNSSLQTDLELRAYVIDGLNHFWTPEEIAGRWSLAHPDRPVSFATIYRHIKRKLLPGIEPKTHLRRRGK                =               -2.54
 8  HMTFPYTSLKDAPKNMKEIDGVPLTLDQVNQIAKVADSIGVSKEKNGYAIAKSQFKKSHHIENNRWVKNK                =              -0.179
 9  HMGPPLISLDDGLAKGFGVGVGDTLTINILGRRITATIASLREIDWQSLRFDFAVVLSPGVLEGA                =               0.237
10  HMNLTEIGQRIRDRREELGLSQDRLAKLGGLPRVTINQLETGSIGDLGVSKLLNLLDLLGLTLDA                =              -0.559
11  HMYSFPHQLLKLRTEKQLSQAELATRLFVSRQAVSKWENGDAEPSIDKLILLAKVFNVSLDRLILGT                =               -4.31
12  HMKEFSFNGGKVIMNYEADRIQIKHDSRPNQEVITLMKRNGFKWSPTNQAWQRQITGNAIYVTKNLLKS                =               -2.33
13  HMTVKNFNDLPGFKNENLAELKAMGITTISELAEALNDGGKIKEIIKNLSGVGPKTAEKWKDAIG                ≥                1.04
14  HMSVLPAREQVAAILRQAILLRKFKEGQDLTLKDAAELVGSSITPVREAFQILENEGLIELRPNKGAVVL                =              -0.627
15  HMVGIAEAMKHIADEDYGDLSAIFKQIFSDTDGGRNFSDAIRTQMRSTDSSGLRKVLSTLIMSIEE                =              -0.651
